System: forty-four human cancer cell lines
Experiment: Cell proliferation assay (ATPlite, 72 hours) in the 44 cell line Oncolines panel
Assay type: cell-based
Conditions: Homo sapiens, MeWo, read-out: cell panel IC50, MeWo
Documented IC50 across a set of molecules
// units = µM; emit number, no label

Examples with answers:
- MOLECULE: "CS(=O)(=O)CCNCc1ccc(-c2ccc3ncnc(Nc4ccc(OCc5cccc(F)c5)c(Cl)c4)c3c2)o1"
  OBS_VALUE: 14.5
- MOLECULE: "COc1cc2nccc(Oc3ccc(NC(=O)C4(C(=O)Nc5ccc(F)cc5)CC4)cc3)c2cc1OC [cabozantinib]"
  OBS_VALUE: 29.8
- MOLECULE: "COc1cc2c(Nc3ccc(Br)cc3F)ncnc2cc1OCC1CCN(C)CC1"
  OBS_VALUE: 5.52

Moving on to another molecule below.
Query Cc1nc(Nc2ncc(C(=O)Nc3c(C)cccc3Cl)s2)cc(N2CCN(CCO)CC2)n1 yields IC50 of 17

Values were extracted from paper PMC3961306.
